Biological target: human recombinant adrenergic α2B receptor (Homo sapiens)
Construct: expressed in transfected cells; host or cells: CHO-K1
Sequence (P18089 whole entry): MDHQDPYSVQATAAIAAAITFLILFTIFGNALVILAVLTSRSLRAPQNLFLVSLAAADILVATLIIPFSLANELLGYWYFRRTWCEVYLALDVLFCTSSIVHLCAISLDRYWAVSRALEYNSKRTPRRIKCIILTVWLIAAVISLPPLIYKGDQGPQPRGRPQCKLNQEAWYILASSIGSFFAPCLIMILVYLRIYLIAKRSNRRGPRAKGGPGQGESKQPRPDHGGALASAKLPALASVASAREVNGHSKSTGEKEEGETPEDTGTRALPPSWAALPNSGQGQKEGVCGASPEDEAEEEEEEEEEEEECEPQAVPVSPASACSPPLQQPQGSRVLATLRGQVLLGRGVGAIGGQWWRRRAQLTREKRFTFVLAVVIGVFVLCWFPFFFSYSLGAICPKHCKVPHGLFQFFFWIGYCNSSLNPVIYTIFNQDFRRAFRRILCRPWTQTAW
Test: Radioligand binding, adrenergic α2B ([3H]Rauwolscine)
Conditions: read-out: Percentage inhibition of ligand binding, Adrenergic α2B (0.03 μM), compound at 0.03 μM; [3H]Rauwolscine; repeat datapoints each shown
Experimental: To evaluate in radioligand binding assays the activity of compounds of the invention, human recombinant adrenergic α2B receptor expressed in Chinese hamster ovary (CHO) K1 cells (Uhlen, S. et al, Eur. J. Pharmacol. 343(1):93, 1998) in a modified Tris-HCl buffer (50 mM Tris-HCl, pH 7.4, 12.5 mM MgCl2, 1 mM EDTA, 0.2% BSA) was used. […] Receptor proteins were filtered and washed, the filters were then counted to determine [3H]Rauwolscine specifically bound. […]
Reported property: inhibition at 0.03 µM (%)

Before answering, review these 3 worked examples.
Cc1ccc(CCn2c3c(c4c(Cl)ccc(Br)c42)CN(C)CC3)cn1 [II-252]    1
CCN1CCc2c(c3cc(C)ccc3n2CCc2ccc(C)cc2)C1 [compound 202]    7
Cc1ccc(C(O)Cn2c3c(c4cc(C)ccc42)CN(C)CC3)cc1 (centres unmarked) [183a]    82

1: Cc1cc2c3c(n(CC(C)(O)c4cccnc4)c2cc1CO)CCN(C)C3 (centres unmarked) [II-154]
2: Cc1cnc2c(c1)c1c(n2CC(O)c2ccc(C#N)nc2)CCN(C)C1 (single isomer, unassigned) [II-114a]
3: CCN1CCc2c(c3cc(C)ccc3n2CC(O)c2ccc(C)cc2)C1 (centres unmarked) [compound 203]
4: Cc1ccc(CCn2c3c(c4c(F)ccc(F)c42)CN(C)CC3)cn1 [II-250]
Ascending sort, inhibition at 0.03 µM. A complete answer lists every label in the requested sequence.
4, 3, 2, 1

I: Cc1cc(C)c2c(c1)c1c(n2CC(O)c2ccncc2)CCN2CCCC12 (single isomer, unassigned) [II-125b]
II: Cc1ccc2c(c1)c1c(n2C(C)C(O)c2ccncc2)CCN(C)C1 (single isomer, unassigned) [127a]
III: Cc1ccc2c(c1)c1c(n2CC(O)c2cnc[nH]2)CCN2CCCC12 (centres unmarked) [II-140]
IV: Cc1ccc2c(c1)c1c(n2CC(CC(=O)O)c2ccncc2)CCN(C)C1 (centres unmarked) [II-228]
Please put the entries in order of rising inhibition at 0.03 µM. # list labels per requested ordering
IV, II, III, I

---

Target: human recombinant adrenergic α2B receptor (Homo sapiens)
Construct: expressed in transfected cells; host or cells: CHO-K1
Assay: Radioligand binding, adrenergic α2B ([3H]Rauwolscine)
Settings: 0.1 μM compound; read-out: Percentage inhibition of ligand binding, Adrenergic α2B
Reported property: inhibition at 0.1 µM (%)

C/C(=C/n1c2c(c3cc(C)ccc31)CN(C)CC2)c1sccc1C    98

I: Cc1ccc2c(c1)c1c(n2C#Cc2ccc(S(N)(=O)=O)cc2)CN(C)CC1
II: Cc1ccc2c(c1)c1c(n2CCc2ccc(C)nc2)C(c2ccccc2)N(C)CC1 (stereo not shown)
Of I and II , whose reported inhibition at 0.1 µM is numerically smaller? Indicate your choice by writing its label.
II
(II: 50%, I: 88%)

I: Cc1ccc2c(c1)c1c(n2CC(C)(O)c2cccnc2)CC[N+](C)([O-])C1 (stereo not shown)
II: C/C(=C\c1ccccc1)n1c2c(c3cc(C)ccc31)CN(C)CC2
III: CN1CCc2c(n(CC(O)c3ccccc3F)c3ccc(Cl)cc23)C1 (stereo not shown)
Hi! Can you put these in order of inhibition at 0.1 µM, lowest number first? // respond by listing labels in the order requested
III, I, II
(III: 0%, I: 27%, II: 70%)

---

Molecular target: human recombinant adrenergic α2A receptor (Homo sapiens)
Construct: expressed in transfected cells; host or cells: insect Sf9 cells
Sequence (P08913 whole entry): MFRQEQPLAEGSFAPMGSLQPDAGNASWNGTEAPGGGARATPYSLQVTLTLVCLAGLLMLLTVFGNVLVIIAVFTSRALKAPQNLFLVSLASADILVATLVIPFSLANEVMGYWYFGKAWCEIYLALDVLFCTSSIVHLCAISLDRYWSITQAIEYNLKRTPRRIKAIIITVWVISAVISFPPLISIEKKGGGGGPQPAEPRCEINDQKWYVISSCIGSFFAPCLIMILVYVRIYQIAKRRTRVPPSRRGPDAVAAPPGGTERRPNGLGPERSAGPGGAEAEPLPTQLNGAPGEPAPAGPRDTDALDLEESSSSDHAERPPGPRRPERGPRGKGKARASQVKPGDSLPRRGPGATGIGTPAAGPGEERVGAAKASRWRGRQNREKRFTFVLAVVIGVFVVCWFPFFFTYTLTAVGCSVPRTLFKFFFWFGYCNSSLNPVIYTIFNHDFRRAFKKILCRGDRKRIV
Assay: Radioligand binding, adrenergic α2A ([3H]MK-912)
Conditions: 0.1 μM compound; read-out: Percentage inhibition of ligand binding, Adrenergic α2A
Reported property: inhibition at 0.1 µM (%)

Answered examples (8):
Cc1ccc2c(c1)c1c(n2CC(c2ccc(F)cc2)N(C)C)CCN(C)C1 (single isomer, unassigned) [II-14a]    34
Cc1ccc2c(c1)c1c(n2CC(C)(C)c2ccncc2)CCN(C)C1 [compound 260]    54
Cc1ccc2c(c1)c1c(n2C#Cc2cccc(N(C)C)c2)CCN(C)C1 [compound 256]    55
Cc1ccc(C#Cn2c3c(c4cc(C)ccc42)CN(C)CC3)nc1 [compound 328]    76
C/C(=C\n1c2c(c3cc(C)ccc31)CN(C)CC2)C1CCCCC1 [compound 261]    84
OC(Cn1c2c(c3cc(Cl)ccc31)CNCC2)c1cccnc1 (stereo not shown) [II-89]    -5
COc1ccc(/C(C)=C/n2c3c(c4cc(C)ccc42)CCN(C)CC3)cc1 [compound 251]    85
C/C(=C\n1c2c(c3cc(C)ccc31)CN(C)CC2)c1ccc(F)nc1 [II-96]    49

A: Cc1cc(-c2sccc2C)c2c(c1)c1c(n2CCc2ccc(C)nc2)CCN(C)C1 [compound 327]
B: C/C(=C/n1c2c(c3cc(C)ccc31)CN(C)CC2)c1cnc(N(C)C)nc1 [compound 279]
# return whichever of A and B has the smaller inhibition at 0.1 µM Refer to your chosen item by its label in the answer.
A
(A: 58%, B: 90%)

---

Target: rat adrenergic α1B receptor (Rattus norvegicus)
Construct: rat adrenergic α1B receptor obtained from Wistar Rat liver; from tissue; host or cells: Wistar rat liver
Assay: Radioligand binding, adrenergic α1B ([3H]Prazosin)
Conditions: read-out: Percentage inhibition of ligand binding, Adrenergic α1B (0.1 μM), compound at 0.1 μM; [3H]Prazosin; repeat datapoints each shown
Reported property: inhibition at 0.1 µM (%)

Cc1ccc2c(c1)c1c(n2/C=C(\F)c2ccncc2)CCN(C)C1 [compound 105]    57
Cc1ccc2c(c1)c1c(n2CCc2ccc(C)nc2)CCN2CCCC12 (stereo not drawn) [197a]    82
Cc1ccc2c(c1)c1c(n2CC(CN)c2ccncc2)CCN(C)C1 (stereo not drawn) [II-221]    -1
Cc1ccc(CCn2c3c(c4c(Br)ccc(Br)c42)CN(C)CC3)cn1 [II-251]    -7
Cc1ccc2c(c1)c1c(n2CC(C)(O)c2cnco2)CCN(C)C1 (stereo not drawn) [II-142]    5

I: Cc1ccc2c(c1)c1c(n2CC(O)c2ccncc2C)CCN(C)C1 (single isomer, unassigned) [133b]
II: C/C(=C\n1c2c(c3cc(C)ccc31)C1CCCN1CC2)c1ccc(C)nc1 (stereo not drawn) [compound 193]
Select the item whose inhibition at 0.1 µM value is smaller, choosing between I and II . // caller expects the label of the chosen entry
I

A: Cc1ccc2c(c1)c1c(n2CC(O)c2ccc(C(N)=O)nc2)CCN(C)C1 (single isomer, unassigned) [144b]
B: Cc1ccc2c(c1)c1c(n2CC(C)(O)c2ccc(F)cc2)CCN2CCCC12 (single isomer, unassigned) [II-121a]
Between A and B , which one has the lower reported inhibition at 0.1 µM value? Write down the label attached to your selection.
A

---

Target: rat adrenergic α1B receptor (Rattus norvegicus, UniProt P15823)
Construct: rat adrenergic α1B receptor obtained from Wistar Rat liver; from tissue; host or cells: Wistar rat liver
Sequence (P15823 1-515): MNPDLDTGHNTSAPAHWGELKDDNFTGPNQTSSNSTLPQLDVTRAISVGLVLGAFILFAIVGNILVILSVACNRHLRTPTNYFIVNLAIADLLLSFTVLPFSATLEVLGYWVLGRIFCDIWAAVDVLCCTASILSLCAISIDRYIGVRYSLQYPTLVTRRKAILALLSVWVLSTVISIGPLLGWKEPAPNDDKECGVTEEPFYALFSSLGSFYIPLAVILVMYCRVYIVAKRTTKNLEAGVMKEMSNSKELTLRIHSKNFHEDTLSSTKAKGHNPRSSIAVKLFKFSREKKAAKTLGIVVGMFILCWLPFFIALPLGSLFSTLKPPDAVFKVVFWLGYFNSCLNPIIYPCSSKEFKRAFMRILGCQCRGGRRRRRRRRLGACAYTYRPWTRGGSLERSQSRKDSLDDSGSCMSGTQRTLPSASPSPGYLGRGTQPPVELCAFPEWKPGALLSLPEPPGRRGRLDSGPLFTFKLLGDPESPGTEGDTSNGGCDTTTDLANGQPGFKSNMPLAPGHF
Assay: Radioligand binding, adrenergic α1B ([3H]Prazosin)
Settings: 0.1 μM compound; read-out: Percentage inhibition of ligand binding, Adrenergic α1B
Reported property: inhibition at 0.1 µM (%)

Cc1ccc2c(c1)c1c(n2CCc2nc(-c3ccc(Cl)cc3)cs2)CCN(C)C1    33
CN1CCc2c(c3cccnc3n2CCc2ccc(C(F)(F)F)nc2)C1    1
OCc1ccc2c(c1)c1c(n2CC(O)c2ccncc2)CCNC1 (stereo not drawn)    -1
CSc1ccc(/C(C)=C/n2c3c(c4cc(Cl)ccc42)CN(C)CC3)cc1    76
Cc1ccc2c(c1)c1c(n2CCc2cccc(C)n2)CCN(C)C1    69
Cc1ccc2c(c1)c1c(n2C=C(c2ccccc2)c2ccccc2)CCN(C)C1    7

A: C/C(=C/n1c2c(c3cc(Cl)ccc31)CCN(C)CC2)c1cccc(F)c1
B: Cc1ccc2c(c1)c1c(n2C2=C(c3sccc3C)CCC2)CCN(C)C1
Two entries are listed, A and B . Which one carries the higher inhibition at 0.1 µM? API: response body contains the label of the selected item.
A
(A: 95%, B: 23%)
